Molecular target: P2X4 (Homo sapiens, UniProt Q99571)
Sequence (Q99571 whole entry): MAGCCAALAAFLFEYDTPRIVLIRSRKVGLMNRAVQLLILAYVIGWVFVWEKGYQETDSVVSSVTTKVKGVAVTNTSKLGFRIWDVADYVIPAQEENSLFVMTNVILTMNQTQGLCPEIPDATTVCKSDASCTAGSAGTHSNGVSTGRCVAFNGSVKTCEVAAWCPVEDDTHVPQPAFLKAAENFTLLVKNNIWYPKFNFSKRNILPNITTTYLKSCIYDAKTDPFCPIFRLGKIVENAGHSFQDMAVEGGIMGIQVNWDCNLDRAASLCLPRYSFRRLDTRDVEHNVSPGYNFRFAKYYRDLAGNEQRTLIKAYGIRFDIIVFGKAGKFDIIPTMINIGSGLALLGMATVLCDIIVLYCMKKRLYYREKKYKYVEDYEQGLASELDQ
Assay: Assay B: human P2X4 receptor cell line, mitochondrial photina luminescence (agonist Bz-ATP at EC50)
Format: cell-based
Design: host or cells: HEK 293 (recombinant, constitutively expressing; with mitochondrial photina in Assay B)
Conditions: HEK human P2X4 cell line, photina luminescence, agonist Bz-ATP at EC50, average; read-out: human P2X4 Assay B avg Efficacy
Would you kindly list Emax for each of these compounds?
Please state the value followed by its unit.

Query block: Could you share which Emax value was measured for NS(=O)(=O)c1cc(NC(=O)Cc2ccccc2Cl)ccc1OCc1cccnc1 ?
Result block: 77%

Query block: Form field: reported Emax of NS(=O)(=O)c1cc(NC(=O)Cc2ccccc2Cl)ccc1Oc1cccc(Br)c1
Result block: 70%

Query block: What measured Emax goes with NS(=O)(=O)c1cc(NC(=O)Cc2ccccc2)ccc1Oc1ccc(F)cc1F ?
Result block: 59%
